Assignment: determine reported R3 Selectivity for the given binders.
# assayed-system: T1, PACAP-R3 (human, UniProt P41587 24-438)
# T1 sequence (looked up): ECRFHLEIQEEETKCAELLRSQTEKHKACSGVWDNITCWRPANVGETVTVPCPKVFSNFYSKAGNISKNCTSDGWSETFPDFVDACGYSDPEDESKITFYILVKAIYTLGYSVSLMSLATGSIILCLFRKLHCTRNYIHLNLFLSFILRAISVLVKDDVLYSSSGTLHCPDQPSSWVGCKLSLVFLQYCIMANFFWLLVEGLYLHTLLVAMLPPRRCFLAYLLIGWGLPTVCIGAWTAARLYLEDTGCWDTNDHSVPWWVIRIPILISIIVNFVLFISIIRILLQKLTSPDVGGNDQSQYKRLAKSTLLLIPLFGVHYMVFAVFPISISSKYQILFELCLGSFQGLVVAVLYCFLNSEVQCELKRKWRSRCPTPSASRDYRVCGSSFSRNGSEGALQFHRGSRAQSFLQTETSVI
# method: cell-based or functional assay
No end group written: not given here.
One number for each entry, in ratio.

Example results:
INSERT INTO measurements (binder, measured_metric, recorded_result) VALUES
  ('HSDGIFTDSYSRYRKQMAVKKYLKAVL-NH2 [PAC24]', 'R3 Selectivity', 1.5),
  ('HSDGIFTDSYSRYRKQMAKKKYLAAVL-NH2 [PAC19]', 'R3 Selectivity', 20);

Let us move to another entry and its R3 Selectivity.
Challenge: // query R3 Selectivity value for entry HSDGIFTDSYSRYRKQKAVKKYLAAVL-NH2 [PAC17]
Response given: 1.6
